The reported measurements were obtained from ChEMBL document CHEMBL2331280.

So I've got a bunch of compounds here, and I need their pEC50 values.
- Test system: HEK293
- assay method text: Cytotoxicity against human HEK293 cells after 72 hrs by sulforhodamine B assay
- Format: functional
- measurement parameters: HEK293, 72 h, read-out: ED50 (the source's name)
Answers are plain numbers, as −log10 of the molar value.

- compound: "C=C1C(=O)O[C@@H]2C[C@@H]3[C@]4(CC[C@]5(C)[C@@H]([C@H](C)CC(=O)C=C(C)C)CC[C@@]35C)C[C@]4(CCC(=O)O)[C@H]12 (relative stereo)"
  measurement type: "pEC50"
  value reported: 5.28
- compound: "Cc1c2ccncc2c(C)c2c1[nH]c1ccccc12"
  measurement type: "pEC50"
  value reported: 5.72

The record that follows has no pEC50 shown yet.
Indicate its recorded pEC50; the compound in question is C=C1C(=O)O[C@@H]2C[C@@H]3[C@]4(CC[C@]5(C)[C@@H]([C@H](C)CC(=O)CC(C)(C)O)CC[C@@]35C)C[C@]4(CCC(=O)OC)[C@H]12 (relative stereo)
5.39

---

- assay target: UniProtKB Q72547
- assay method text: Inhibition of HIV-1 reverse transcriptase assessed as decrease in incorporation of [3H]TTP into polyA template at 200 ug/ml
Label no (0) if inhibition falls below 60%; label yes (1) in every other case.

The following compounds have reported results that may help.
- compound: "C=C1C(=O)O[C@@H]2C[C@@H]3[C@]4(CC[C@]5(C)[C@@H]([C@H](C)CC(=O)C=C(C)C)CC[C@@]35C)C[C@]4(CCC(=O)OC)[C@H]12 [SECAUBRYOLIDE]"
  class label: "no (0)"
- compound: "C=C(CO)[C@@H]1CC[C@@H]2[C@H](CC[C@]3(C)[C@@H]([C@H](C)CC(=O)C=C(C)C)CC[C@@]23C)C[C@]12CCC(=O)O2"
  class label: "no (0)"
- compound: "C=C1C(=O)O[C@@H]2C[C@@H]3[C@]4(CC[C@]5(C)[C@@H]([C@H](C)CC(=O)C=C(C)C)CC[C@@]35C)C[C@]4(CCC(=O)O)[C@H]12 (relative stereo)"
  class label: "yes (1)"
- compound: "CC(C)CC(=O)C[C@@H](C)[C@H]1CC[C@@]2(C)[C@@H]3CC[C@H]4[C@](C)(C(=O)O)[C@@H](O)C[C@H](O)[C@@]45C[C@@]35CC[C@]12C"
  class label: "no (0)"
- compound: "C=C1COC(=O)CC[C@]23C[C@]24CC[C@]2(C)[C@@H]([C@H](C)CC(=O)C=C(C)C)CC[C@@]2(C)[C@@H]4CC[C@@H]13 (relative stereo)"
  class label: "no (0)"
- compound: "C=C1C(=O)O[C@@H]2C[C@@H]3[C@]4(CC[C@]5(C)[C@@H]([C@H](C)CC(=O)CC(C)(C)O)CC[C@@]35C)C[C@]4(CCC(=O)OC)[C@H]12 (relative stereo)"
  class label: "no (0)"
- compound: "C=C(C(=O)O)[C@@H]1CC[C@@H]2[C@]3(CC[C@]4(C)[C@@H]([C@H](C)CC(=O)C=C(C)C)CC[C@@]24C)C[C@]13CCC(=O)OC (relative stereo)"
  class label: "yes (1)"
- compound: "CC(C)CC(=O)C[C@@H](C)[C@H]1CC[C@@]2(C)[C@@H]3CC[C@H]4[C@](C)(C(=O)O)[C@@H](O)CC[C@@]45C[C@@]35CC[C@]12C (relative stereo)"
  class label: "no (0)"

We next turn to a different compound, shown below.
Reported inhibition reaches at least 60% for `C=C(C(=O)O)[C@@H]1CC[C@@H]2[C@]3(CC[C@]4(C)[C@@H]([C@H](C)CC(=O)C=C(C)C)CC[C@@]24C)C[C@]13CCC(=O)O` ?
yes (1)
